Experiment: Preclinical PET biodistribution of [^18F]FPCA‐F9 solution after tail‐vein injection
Format: in vivo, C3H mice
Settings: C3H, mouse, bladder, iv, 13 MBq, total radioactivity, i.v. tail vein, 1 hour postinjection, n = 4, read-out: Bladder uptake
Where a SMILES comes first, the peptide text is derived from it. The star is where a group is joined. X1 = O=C(CO/N=C/c1cccnc1F)*
measurement-type: SUV at 1 h
Please state the value followed by its unit.

Prompt line: In one line, give reported SUV at 1 h of the entry NCCCC[C@H](NC(=O)[C@H](CCCCN)NC(=O)[C@H](Cc1ccccc1)NC(=O)[C@H](CCC(=O)O)NC(=O)[C@H](Cc1ccccc1)NC(=O)[C@H](CCCCN)NC(=O)[C@H](Cc1ccccc1)NC(=O)[C@H](CCC(=O)O)NC(=O)[C@H](Cc1ccccc1)NC(=O)CO/N=C/c1cccnc1F)C(=O)O [[^18F]FPCA‐F9] (X1-FEFKFEFKK-OH) .
Response line: 47.4 SUV

---

Assay: Preclinical PET biodistribution of [^18F]FPCA‐F9 solution after tail‐vein injection
Assay type: in vivo, C3H mice
Conditions: C3H, mouse, kidney, iv, 13 MBq, total radioactivity, i.v. tail vein, within 5 minutes postinjection, n = 4, read-out: Kidney uptake
Excerpt: C3H mice were anaesthetised using isoflurane induction 4% and maintained 1.5% in 70% N2O and 30% O2 mixture. […] Major excretory organs, including liver, kidney and bladder as well as bone and hydrogel region (in [^18F]FPCA‐F9 hydrogel scans only), were delineated on CT and uptake was quantified as SUV.
Where a SMILES comes first, the peptide text is derived from it. The star is where a group is joined. X1 = O=C(CO/N=C/c1cccnc1F)*
measurement-type: SUV (SUV)
Form entry: value (SUV) — number only.

Prompt line: Give the value of SUV reported for the following: NCCCC[C@H](NC(=O)[C@H](CCCCN)NC(=O)[C@H](Cc1ccccc1)NC(=O)[C@H](CCC(=O)O)NC(=O)[C@H](Cc1ccccc1)NC(=O)[C@H](CCCCN)NC(=O)[C@H](Cc1ccccc1)NC(=O)[C@H](CCC(=O)O)NC(=O)[C@H](Cc1ccccc1)NC(=O)CO/N=C/c1cccnc1F)C(=O)O [[^18F]FPCA‐F9] (X1-FEFKFEFKK-OH)
Response line: 5.9

---

Assay: Preclinical PET biodistribution of [^18F]FPCA‐F9 solution after tail‐vein injection
Assay type: in vivo, C3H mice
Details: C3H, mouse, bladder, iv, total radioactivity, i.v. tail vein, 13 MBq, 20 minutes postinjection, begins to plateau, n = 4, mean ± SD, read-out: Bladder uptake
From the text: C3H mice were anaesthetised using isoflurane induction 4% and maintained 1.5% in 70% N2O and 30% O2 mixture. […] Major excretory organs, including liver, kidney and bladder as well as bone and hydrogel region (in [^18F]FPCA‐F9 hydrogel scans only), were delineated on CT and uptake was quantified as SUV.
Where a SMILES comes first, the peptide text is derived from it. The star is where a group is joined. X1 = O=C(CO/N=C/c1cccnc1F)*
measurement-type: SUV at 20 min (SUV)
Write down the numeric answer in SUV and omit the unit.

Prompt line: Name the recorded SUV at 20 min of the molecule listed here: NCCCC[C@H](NC(=O)[C@H](CCCCN)NC(=O)[C@H](Cc1ccccc1)NC(=O)[C@H](CCC(=O)O)NC(=O)[C@H](Cc1ccccc1)NC(=O)[C@H](CCCCN)NC(=O)[C@H](Cc1ccccc1)NC(=O)[C@H](CCC(=O)O)NC(=O)[C@H](Cc1ccccc1)NC(=O)CO/N=C/c1cccnc1F)C(=O)O [[^18F]FPCA‐F9] (X1-FEFKFEFKK-OH)
Response line: 53.4
